target.or.system: PIKFYVE (Homo sapiens, UniProt Q9Y2I7)
Sequence (Q9Y2I7 whole entry): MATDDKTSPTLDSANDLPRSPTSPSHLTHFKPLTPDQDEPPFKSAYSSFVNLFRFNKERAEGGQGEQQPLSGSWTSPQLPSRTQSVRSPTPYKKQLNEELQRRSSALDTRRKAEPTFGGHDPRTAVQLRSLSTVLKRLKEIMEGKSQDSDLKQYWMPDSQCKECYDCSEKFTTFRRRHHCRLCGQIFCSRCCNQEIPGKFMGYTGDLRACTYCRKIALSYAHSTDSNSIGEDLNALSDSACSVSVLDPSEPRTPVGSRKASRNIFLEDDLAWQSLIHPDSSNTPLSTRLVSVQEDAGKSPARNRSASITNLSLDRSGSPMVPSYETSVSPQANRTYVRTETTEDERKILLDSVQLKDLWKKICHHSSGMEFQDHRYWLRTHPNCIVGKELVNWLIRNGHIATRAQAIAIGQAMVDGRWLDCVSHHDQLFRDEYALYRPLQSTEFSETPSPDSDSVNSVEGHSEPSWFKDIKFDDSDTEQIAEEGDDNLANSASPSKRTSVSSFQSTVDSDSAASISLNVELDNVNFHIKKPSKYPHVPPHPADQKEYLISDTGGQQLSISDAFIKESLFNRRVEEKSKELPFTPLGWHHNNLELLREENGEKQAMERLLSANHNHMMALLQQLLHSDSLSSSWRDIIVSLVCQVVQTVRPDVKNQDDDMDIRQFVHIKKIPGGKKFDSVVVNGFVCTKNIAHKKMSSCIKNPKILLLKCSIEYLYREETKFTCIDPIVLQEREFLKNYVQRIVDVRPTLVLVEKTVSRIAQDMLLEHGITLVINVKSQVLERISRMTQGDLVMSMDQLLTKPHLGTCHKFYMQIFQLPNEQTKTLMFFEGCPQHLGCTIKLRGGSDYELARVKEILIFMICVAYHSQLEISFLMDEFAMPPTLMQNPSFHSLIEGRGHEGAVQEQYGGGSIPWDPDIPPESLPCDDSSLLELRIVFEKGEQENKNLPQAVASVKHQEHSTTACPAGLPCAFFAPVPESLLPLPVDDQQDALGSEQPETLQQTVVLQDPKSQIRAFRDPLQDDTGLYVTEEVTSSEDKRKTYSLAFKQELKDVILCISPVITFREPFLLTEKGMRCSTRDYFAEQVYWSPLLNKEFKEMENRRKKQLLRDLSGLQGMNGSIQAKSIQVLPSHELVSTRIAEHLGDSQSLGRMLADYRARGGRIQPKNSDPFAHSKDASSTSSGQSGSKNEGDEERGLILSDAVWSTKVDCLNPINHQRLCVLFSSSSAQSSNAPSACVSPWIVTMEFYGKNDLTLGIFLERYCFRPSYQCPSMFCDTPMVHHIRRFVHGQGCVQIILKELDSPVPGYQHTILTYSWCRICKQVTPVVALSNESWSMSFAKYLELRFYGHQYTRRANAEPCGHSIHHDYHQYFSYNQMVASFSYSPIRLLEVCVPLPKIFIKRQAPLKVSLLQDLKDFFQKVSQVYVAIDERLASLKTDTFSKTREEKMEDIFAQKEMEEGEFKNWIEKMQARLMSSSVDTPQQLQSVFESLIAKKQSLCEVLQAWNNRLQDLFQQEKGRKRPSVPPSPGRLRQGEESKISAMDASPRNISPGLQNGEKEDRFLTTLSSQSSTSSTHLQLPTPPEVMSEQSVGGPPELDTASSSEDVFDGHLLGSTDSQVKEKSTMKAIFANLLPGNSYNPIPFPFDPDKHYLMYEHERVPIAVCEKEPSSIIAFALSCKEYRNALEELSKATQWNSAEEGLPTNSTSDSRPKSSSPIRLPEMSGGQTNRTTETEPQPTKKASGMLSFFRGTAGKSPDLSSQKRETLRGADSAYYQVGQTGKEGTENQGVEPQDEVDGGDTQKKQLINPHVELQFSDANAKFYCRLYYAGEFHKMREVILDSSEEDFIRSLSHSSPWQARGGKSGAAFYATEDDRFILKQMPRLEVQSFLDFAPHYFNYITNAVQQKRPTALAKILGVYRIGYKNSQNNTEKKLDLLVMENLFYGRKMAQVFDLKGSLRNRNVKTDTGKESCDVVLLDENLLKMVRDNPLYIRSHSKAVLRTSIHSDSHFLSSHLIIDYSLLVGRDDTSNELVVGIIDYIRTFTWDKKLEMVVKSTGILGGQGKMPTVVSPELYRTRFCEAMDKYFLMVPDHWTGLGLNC
measurement.description: PIKFYVE assay (luciferase ADP-Glo kinase assay, Promega)
Format: biochemical
experimental.endpoint: IC50

Problem: Record request: IC50 value, item Cc1cccc(-c2ccn(-c3cc(N4CCCOCC4)nc(OCC4CCCO4)n3)n2)c1 (centres unmarked)
Result: 101 to 1000 nM

Problem: Record request: IC50 value, item c1ccc(-c2ccn(-c3cc(N4CC[C@H]5OCC[C@H]54)nc(OCCc4ccccn4)n3)n2)cc1
Result: 101 to 1000 nM

Problem: Record request: IC50 value, item COc1cccc(-c2ccn(-c3cc(N4CC[C@H]5OCC[C@H]54)nc(OCC4CCCO4)n3)n2)c1 (some centres unmarked)
Result: 5 to 100 nM

Problem: Record request: IC50 value, item COc1cccc(-c2ccn(-c3cc(N4CCOCC4)nc(OCCC4CCOCC4)n3)n2)c1
Result: < 5 nM

Problem: Record request: IC50 value, item Cc1cccc(-c2csc(-c3cc(N4CC[C@H]5OCC[C@H]54)nc(OCC4CCCO4)n3)n2)c1 (some centres unmarked)
Result: 101 to 1000 nM

Problem: Record request: IC50 value, item c1ccc(-c2cn(-c3cc(N4CCOCC4)nc(OCCc4ccccn4)n3)cn2)cc1
Result: 1000 to 10000 nM

Problem: Record request: IC50 value, item COc1cccc(-c2ccn(-c3cc(N4CCOCC4)nc(OCCc4scnc4C)n3)n2)c1
Result: < 5 nM

Problem: Record request: IC50 value, item COc1cccc(-c2ccn(-c3cc(N4CCOCC4)nc(OCCC(O)CO)n3)n2)c1 (centres unmarked)
Result: < 5 nM

====

target.or.system: UniProt Q9Y2I7
measurement.description: PIKFYVE assay (luciferase ADP-Glo kinase assay, Promega)
Format: biochemical
Task for the reader: assign each of the following molecules its reported IC50.

Problem: Record request: IC50 value, item COC1CCN(c2cc(-n3ccc(-c4cccc(C)c4)n3)nc(OCC3CCCO3)n2)C1 (stereo not drawn)
Result: 1000 to 10000 nM

Problem: Record request: IC50 value, item COc1cccc(-c2ccn(-c3cc(N4CC[C@H]5OCC[C@H]54)nc(OCCc4scnc4C)n3)n2)c1
Result: 5 to 100 nM

Problem: Record request: IC50 value, item COc1cccc(-c2ccn(-c3cc(N4CC[C@H]5OCC[C@H]54)nc(OCCC(O)CO)n3)n2)c1 (stereo partly drawn)
Result: 5 to 100 nM

====

target.or.system: PIKFYVE (Homo sapiens)
measurement.description: PIKFYVE assay (luciferase ADP-Glo kinase assay, Promega)
Type: biochemical
experimental.endpoint: IC50

Problem: Recorded IC50 for Cc1cccc(-c2ccn(-c3cc(C4CCOC4)nc(OCC4CCCO4)n3)n2)c1 (centres unmarked) [Compound 17] with PIKFYVE (Homo sapiens), please?
Result: 5 to 100 nM

Problem: Recorded IC50 for Cc1cccc(-c2ccn(-c3cc(N4CCOCC4CO)nc(CCC4CCCO4)n3)n2)c1 (centres unmarked) [Compound 20] with PIKFYVE (Homo sapiens), please?
Result: 5 to 100 nM

Problem: Recorded IC50 for COc1cccc(-c2ccn(-c3cc(N4CC[C@H]5OCC[C@H]54)nc(OCCc4ccccn4)n3)n2)c1 [Compound 16] with PIKFYVE (Homo sapiens), please?
Result: 101 to 1000 nM

Problem: Recorded IC50 for Cc1cccc(-c2ccn(-c3cc(N4CC[C@H]5OCC[C@H]54)nc(CCc4ncccn4)n3)n2)c1 [Compound 19] with PIKFYVE (Homo sapiens), please?
Result: 5 to 100 nM

Problem: Recorded IC50 for Cc1cccc(-n2ccc(-c3cc(N4CCOCC4)nc(OCC4CCCO4)n3)n2)c1 (centres unmarked) [Compound 13] with PIKFYVE (Homo sapiens), please?
Result: 5 to 100 nM

Problem: Recorded IC50 for COc1cccc(-c2ccn(-c3cc(N4CCOCC4)nc(OCC4CCCO4)n3)n2)c1 (centres unmarked) [Compound 2] with PIKFYVE (Homo sapiens), please?
Result: < 5 nM

Problem: Recorded IC50 for Cc1cccc(-c2csc(-c3cc(N4CCOCC4)nc(OCC4CCCO4)n3)n2)c1 (centres unmarked) [Compound 12] with PIKFYVE (Homo sapiens), please?
Result: 5 to 100 nM

Problem: Recorded IC50 for COc1cccc(-c2ccn(-c3cc(N4CC[C@H]5OCC[C@H]54)nc(OCCO)n3)n2)c1 [Compound 5] with PIKFYVE (Homo sapiens), please?
Result: 101 to 1000 nM

The reported measurements were obtained from patent US20200199136A1.
